Assay: NCI Yeast Anticancer Drug Screen. Data for the mec2-1 strain (AID 157)
Details: S. cerevisiae mec2-1 strain, at 50.0 µM, active compounds read high
The panel holds about 79,000 compounds, 15% with a hit somewhere; the sample as a whole holds those more often. Where a SMILES comes first, the peptide text is derived from it. Bridges are numbered along the chain shown (N, C = ends). Roman numbers before positions name the chains, in order.
MEASURED_ENDPOINT: growth inhibition (%)
Numbers only, in %.

Below are worked cases with known answers.
{"COMPOUND": "Cc1ccc(NC(=S)N/C=C(\\c2ccccc2)S(=O)Cc2ccccc2)c(C)c1 (stereo not drawn)", "UNIT_ABBREVIATION": "%", "growth inhibition": -22.1}
{"COMPOUND": "CCN(C)c1ccccc1", "UNIT_ABBREVIATION": "%", "growth inhibition": -27.8}
{"COMPOUND": "Nc1cn[nH]c(=O)n1", "UNIT_ABBREVIATION": "%", "growth inhibition": 20.6}
{"COMPOUND": "O=C(O)Cc1[nH]c(=O)[nH]c(=O)c1CCl", "UNIT_ABBREVIATION": "%", "growth inhibition": -7.75}
{"COMPOUND": "COC(=O)C1=C(C(=O)OC)C2CCC1O2", "UNIT_ABBREVIATION": "%", "growth inhibition": -6}

Provide reported growth inhibition for each item, in the same order as listed.
1. CC1(C)CC2=C(Sc3ccccc3N2)C(=O)C1C(=O)C(=O)Nc1cc(Cl)ccc1Cl (stereo not drawn)
2. CNC(=S)N/N=C(C)\C=N/Nc1ccc(Br)cc1
3. O=C(O)c1cc(-c2cccs2)c(C(=O)O)s1
4. CCCCC1SC(N)=NC1=O (stereo not drawn)
5. CC(C)CC(NC(=O)C(N)CSSCC(N)C(=O)NC(CC(C)C)C(=O)O)C(=O)O (stereo not drawn) (I: H-Cys-Leu-OH / II: H-Cys-Leu-OH; disulfide I:1-II:1; configuration not given here)
6. CCOP(=O)(OCC)C(NC(=O)C(C(F)(F)F)C(F)(F)F)c1ccccc1 (stereo not drawn)
7. Cc1ccc2c(C)cc(=O)n(C)c2c1
8. COC(=O)c1nc(=S)[nH]c(C(=O)OC)c1C(=O)c1cccnc1

[-6.95, 14.1, 5.35, -2.35, -6.85, 16.2, 11.2, 15.2]

Provide reported growth inhibition for each item, in the same order as listed.
1. c1ccc2cc(N=Nc3cccc4ccccc34)ccc2c1
2. CC(=O)OCC(COC(C)=O)C(C)=O
3. C=CCN(CC=C)/N=N/c1nc[nH]c1C(N)=O
4. CC(NN(C)C(=S)Nc1ccccc1)c1ccccn1 (stereo not drawn)
5. COc1ccc(CCN/C=C(\C)C(=O)c2ccc(F)cc2)cc1OC

1. -17.9
2. -5.75
3. 8.55
4. -7.15
5. -4.6

Provide reported growth inhibition for each item, in the same order as listed.
1. FC1(F)C(F)(F)C(F)(F)C2(F)C(F)(F)C(F)(F)C(F)(F)C(F)(F)C2(F)C1(F)F (stereo not drawn)
2. NC1=NC(c2ccccc2)N=C(Nc2ccccc2)N1 (stereo not drawn)
3. COc1ccc(N(N=Nc2ccccc2)C(C)=O)cc1
4. O=C(CC1(O)C(=O)Nc2ccc(Br)cc21)c1ccc(Cl)cc1Cl (stereo not drawn)
5. N#Cc1c(N)nc2c(c(-c3ccc(Cl)cc3)nn2-c2ccccc2)c1C#N
6. CC1(C(=O)O)CCCCCCC1O (stereo not drawn)
7. O=C1N(CC2CO2)CCN1CC1CO1 (stereo not drawn)

[-21.2, 1.4, 2, 36.7, -17.4, 9.55, -10.2]

Provide reported growth inhibition for each item, in the same order as listed.
1. O=C(O)/C=C/c1ccc(O)c(O)c1
2. Cc1cc(OC(=O)Nc2cccc(Cl)c2C)ccc1[N+](=O)[O-]
3. OC1c2ccccc2-c2ccc(NCc3ccc4c(c3)OCO4)cc21 (stereo not drawn)
4. CC(=O)OCc1ccc([N+](=O)[O-])cc1
5. O=[N+]([O-])c1cc(/C=N/NS(=O)(=O)c2ccc(F)cc2)c(O)c([N+](=O)[O-])c1
6. CC1CCOC2(CCCCC2)O1 (stereo not drawn)
7. CS/C(=C\c1ccc2ccccc2[n+]1C)N1CCN(CCCO)CC1

1. -7.15
2. 53.4
3. -11.2
4. 0.25
5. -11.2
6. -7.15
7. 10
